assay: Cytotoxicity against human MT4 cells assessed as reduction in cell viability; type: toxicity, cell-based
# CC50 listing for each entry below

Some solved entries appear below for comparison.
Input line: Complete the entry with CC50 for Cc1cn([C@H]2C=C[C@@H](COP(=O)(OCCSC(=O)C(C)(C)C)OCCSC(=O)C(C)(C)C)O2)c(=O)[nH]c1=O
Output line: > 10 µM

Input line: Name the recorded CC50 of the compound listed here: Cc1cn([C@H]2CC[C@@H](COP(=O)(OCCSC(=O)C(C)(C)C)OCCSC(=O)C(C)(C)C)O2)c(=O)[nH]c1=O
Output line: > 10 µM

Input line: Complete the entry with CC50 for Cc1cn([C@H]2CC[C@@H](COP(=O)(SCCOC(=O)C(C)(C)C)SCCOC(=O)C(C)(C)C)O2)c(=O)[nH]c1=O
Output line: > 10 µM

# input for lookup
Input line: Note CC50 for the compound shown: CC(C)(C)C(=O)SCCOP(=O)(OCCSC(=O)C(C)(C)C)OC[C@@H]1C=C[C@H](n2cnc3c(N)ncnc32)O1
Output line: 9 µM

###

Entries and their half-life values follow.
test: Stability of compound in RPMI 1640 culture medium at pH 7.45 assessed as compound half life by HPLC analysis; assay type: physicochemical
The answer is to be given in h; state only the numeric part.

Input line: Respond only with half-life recorded for CC(C)(C)C(=O)SCCOP(=O)(OCCSC(=O)C(C)(C)C)OC[C@@H]1C=C[C@H](n2cnc3c(N)ncnc32)O1
Output line: 302

Now look at this one.
Input line: State, in one line, measured half-life of CC(C)(C)C(=O)OCCSP(=O)(OC[C@@H]1CC[C@H](n2cnc3c(N)ncnc32)O1)SCCOC(=O)C(C)(C)C
Output line: 52.8

###

test: Stability of compound in human CEM-SS cell extract at pH 7.45 assessed as compound half life by HPLC analysis; type: ADME, cell-based
Each record here notes measured half-life.
Mention the unit after the number when you answer.

Input line: Identify measured half-life corresponding to CC(C)(C)C(=O)SCCOP(=O)(OCCSC(=O)C(C)(C)C)OC[C@@H]1C=C[C@H](n2cnc3c(N)ncnc32)O1
Output line: 1 h

***
Input line: For the compound CC(C)(C)C(=O)OCCSP(=O)(OC[C@@H]1CC[C@H](n2cnc3c(N)ncnc32)O1)SCCOC(=O)C(C)(C)C , give its measured half-life value.
Output line: 5.3 h

###

system: Human immunodeficiency virus 1; assay: Anti-HIV activity against HIV-1 infected in human PBMC assessed as inhibition of viral replication; assay type: functional, organism-based; details: Human immunodeficiency virus 1, PBMC
Each item that follows carries a reported pEC50.
// pEC50 here means minus log10 of the molar concentration (mol/L)

Input line: Query pEC50 for CC(C)(C)C(=O)OCCSP(=O)(OC[C@@H]1CC[C@H](n2cnc3c(N)ncnc32)O1)SCCOC(=O)C(C)(C)C
Output line: 7.70

Input line: State its pEC50 for this molecule: Nc1ncnc2c1ncn2[C@H]1CC[C@@H](CO)O1
Output line: 6.62

Others:
Input line: Give me measured pEC50, please, for this molecule: CC(C)(C)C(=O)SCCOP(=O)(OCCSC(=O)C(C)(C)C)OC[C@@H]1C=C[C@H](n2cnc3c(N)ncnc32)O1
Output line: 7.33

###

test: Cytotoxicity against human PBMC assessed as reduction in cell viability; type: toxicity, cell-based
result_type: CC50

Examples with their reported CC50 follow.
Input line: For CC(C)(C)C(=O)OCCSP(=O)(OC[C@@H]1CC[C@H](n2cnc3c(N)ncnc32)O1)SCCOC(=O)C(C)(C)C , write its CC50.
Output line: > 10 µM

Input line: Please supply the value of reported CC50 for the item CC(C)(C)C(=O)SCCOP(=O)(OCCSC(=O)C(C)(C)C)OC[C@@H]1C=C[C@H](n2cnc3c(N)ncnc32)O1
Output line: 1.7 µM

Continuing:
Input line: Tell me its CC50 given Nc1ncnc2c1ncn2[C@H]1CC[C@@H](CO)O1 as the entry.
Output line: > 100 µM

###

system: CEM-TK(-); test: Cytotoxicity against human CEM-TK(-) cells assessed as reduction in cell viability; format: functional
result_type: CC50

Known results for compounds:
Input line: // Input: Cc1cn([C@H]2C=C[C@@H](COP(=O)(OCCSC(=O)C(C)(C)C)OCCSC(=O)C(C)(C)C)O2)c(=O)[nH]c1=O . Output its CC50 only.
Output line: 4.6 µM

Input line: Give reported CC50 value for Cc1cn([C@H]2CC[C@@H](COP(=O)(OCCSC(=O)C(C)(C)C)OCCSC(=O)C(C)(C)C)O2)c(=O)[nH]c1=O
Output line: > 10 µM

Input line: Fill in reported CC50 for this entry: Cc1cn([C@H]2CC[C@@H](CO)O2)c(=O)[nH]c1=O
Output line: > 100 µM

Input line: Name the recorded CC50 of the compound listed here: Cc1cn([C@H]2C=C[C@@H](COP(=O)(SCCOC(=O)C(C)(C)C)SCCOC(=O)C(C)(C)C)O2)c(=O)[nH]c1=O
Output line: 8 µM

Input line: Retrieve CC50 measured for Cc1cn([C@H]2C=C[C@@H](CO)O2)c(=O)[nH]c1=O [STAVUDINE] and print it.
Output line: > 100 µM

For the next question, use this compound.
Input line: Using the record for Cc1cn([C@H]2CC[C@@H](COP(=O)(SCCOC(=O)C(C)(C)C)SCCOC(=O)C(C)(C)C)O2)c(=O)[nH]c1=O , state its measured CC50.
Output line: > 10 µM

###

system: Human immunodeficiency virus 1; assay: Anti-HIV activity against HIV-1 infected in human CEM-SS cells assessed as inhibition of viral replication; format: functional, organism-based; details: Human immunodeficiency virus 1, CEM-SS
Threshold 0.2 µM. EC50 below it: yes. EC50 at it or above: no.

Input line: Criterion: EC50 strictly below 0.2 µM. Is it met by Cc1cn([C@H]2CC[C@@H](COP(=O)(SCCOC(=O)C(C)(C)C)SCCOC(=O)C(C)(C)C)O2)c(=O)[nH]c1=O ?
Output line: yes

Further cases:
Input line: Please determine if Cc1cn([C@H]2C=C[C@@H](CO)O2)c(=O)[nH]c1=O is below 0.2 µM in terms of EC50.
Output line: yes

Input line: Dear reviewer, please state whether Cc1cn([C@H]2C=C[C@@H](COP(=O)(OCCSC(=O)C(C)(C)C)OCCSC(=O)C(C)(C)C)O2)c(=O)[nH]c1=O has EC50 strictly beneath 0.2 µM.
Output line: yes

Input line: Hello, I'm reviewing records and need to know if EC50 of Cc1cn([C@H]2CC[C@@H](COP(=O)(OCCSC(=O)C(C)(C)C)OCCSC(=O)C(C)(C)C)O2)c(=O)[nH]c1=O is below 0.2 µM. Could you check?
Output line: no

Input line: Here's an entry: Nc1ncnc2c1ncn2[C@H]1CC[C@@H](CO)O1 . Is its EC50 below 0.2 µM?
Output line: no

###

Below: a set of entries, each annotated with reported CC50.
assay: Cytotoxicity against human MT4 cells assessed as reduction in cell viability; type: toxicity, cell-based

Please review the entries below; each comes with its answer.
Input line: Provide measured CC50 value, entry: CC(C)(C)C(=O)OCCSP(=O)(OC[C@@H]1CC[C@H](n2cnc3c(N)ncnc32)O1)SCCOC(=O)C(C)(C)C
Output line: > 1 µM

Input line: Report measured CC50; entry is Cc1cn([C@H]2CC[C@@H](CO)O2)c(=O)[nH]c1=O
Output line: > 100 µM

Input line: Complete the entry with CC50 for Cc1cn([C@H]2C=C[C@@H](COP(=O)(SCCOC(=O)C(C)(C)C)SCCOC(=O)C(C)(C)C)O2)c(=O)[nH]c1=O
Output line: > 10 µM

Input line: Complete the entry with CC50 for Nc1ncnc2c1ncn2[C@H]1CC[C@@H](CO)O1
Output line: > 100 µM

Next, consider the following compound.
Input line: Query CC50 for Cc1cn([C@H]2C=C[C@@H](CO)O2)c(=O)[nH]c1=O
Output line: > 100 µM
